Values compiled from patent US8362000B2.

# Assayed System: purified wild type MGL (wt-MGLL 6H-11-313) (Homo sapiens)
# Sequence (Q99685 1-303): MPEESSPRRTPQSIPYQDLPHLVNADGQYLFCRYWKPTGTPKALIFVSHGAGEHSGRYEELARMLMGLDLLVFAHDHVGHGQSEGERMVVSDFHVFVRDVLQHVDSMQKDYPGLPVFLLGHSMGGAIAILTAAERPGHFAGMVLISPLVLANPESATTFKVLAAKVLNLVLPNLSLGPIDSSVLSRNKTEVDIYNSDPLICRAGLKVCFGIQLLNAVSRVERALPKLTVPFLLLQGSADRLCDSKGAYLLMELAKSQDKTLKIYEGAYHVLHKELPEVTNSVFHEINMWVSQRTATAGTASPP
pIC50: −log10 of the molar value.
Property: pIC50

Please review the entries below; each comes with its answer.
Molecule: O=C(c1ccc(S(=O)(=O)N2CCCCC2)cc1)N1CC(N2CCN(C(=O)c3nccs3)CC2)C1 [Cpd 947]
Result Value: 5.97

Molecule: O=C(c1ccc2c(c1)ncn2CCC(F)(F)F)N1CC(N2CCN(C(=O)c3cscn3)CC2)C1 [Cpd 851]
Result Value: 5.10

Molecule: O=C(c1ccc(-c2cccc(C(F)(F)F)c2)cc1)N1CCN(C2CN(C(=O)c3cc[nH]c3)C2)CC1 [Cpd 1243]
Result Value: 6.33

Molecule: O=C(c1ccccc1)N1CCN(C2CN(C(=O)c3sc4ccc(Cl)cc4c3C(F)(F)F)C2)CC1 [Cpd 506]
Result Value: 7.32

[A] Cn1cc(-c2ccc(C(F)(F)F)cc2)c2ccc(C(=O)N3CC(N4CCN(C(=O)c5cscn5)CC4)C3)cc21 [Cpd 1148]
[B] O=C(c1nccs1)N1CCN(C2CN(C(=O)c3cn(-c4cccc(F)c4)c4ccccc34)C2)CC1 [Cpd 1226]
[C] O=C(c1ccc(-c2ccccc2)cc1)N1CCN(C2CN(C(=O)c3cccc(F)c3)C2)CC1 [Cpd 1242]
[D] O=C(c1cscn1)N1CCN(C2CN(C(=O)c3cc4ccn(-c5ccc(F)cc5)c4cc3F)C2)CC1 [Cpd 1069]
[E] Cc1c(C(=O)N2CC(N3CCN(C(=O)c4cscn4)CC3)C2)oc2ccc(F)cc12 [Cpd 862]
Q. Hi! Can you put these in order of pIC50, lowest number first? Would you mind listing the labels in the order asked for?
A. E, C, B, A, D
(E: 5.02, C: 6.34, B: 6.55, A: 7.48, D: 8.15)
